System: NCI-H1299
Assay: Additive cytotoxicity against human NCI-H1299 cells measured in presence of 5 uM KU55933 after 2 days by SRB assay
Format: functional, cell-based
Conditions: NCI-H1299, 48 h
assay.endpoint: IC50 (µM)
Enter your answer as a number in µM; do not include the unit.

stdin: // Input: COc1cc([C@@H]2c3cc4c(cc3[C@@H](O[C@@H]3O[C@@H]5CO[C@@H](C)O[C@H]5[C@H](O)[C@H]3O)[C@H]3COC(=O)[C@H]23)OCO4)cc(OC)c1O [ETOPOSIDE] . Output its IC50 only.
stdout: 9.37

stdin: // Input: CCc1c2c(nc3ccc(OC(=O)N4CCC(N5CCCCC5)CC4)cc13)-c1cc3c(c(=O)n1C2)COC(=O)[C@]3(O)CC . Output its IC50 only.
stdout: 13.1
